TARGET: T790M/L858R transformed Ba/F3 cells (Homo sapiens, UniProt P00533, T790M/L858R, cells depend on it)
Construct: The constructs were shuttled into the retroviral vector JP 1540 using the BD Creator™ System (BD Biosciences)
Sequence (P00533 whole entry T790M/L858R): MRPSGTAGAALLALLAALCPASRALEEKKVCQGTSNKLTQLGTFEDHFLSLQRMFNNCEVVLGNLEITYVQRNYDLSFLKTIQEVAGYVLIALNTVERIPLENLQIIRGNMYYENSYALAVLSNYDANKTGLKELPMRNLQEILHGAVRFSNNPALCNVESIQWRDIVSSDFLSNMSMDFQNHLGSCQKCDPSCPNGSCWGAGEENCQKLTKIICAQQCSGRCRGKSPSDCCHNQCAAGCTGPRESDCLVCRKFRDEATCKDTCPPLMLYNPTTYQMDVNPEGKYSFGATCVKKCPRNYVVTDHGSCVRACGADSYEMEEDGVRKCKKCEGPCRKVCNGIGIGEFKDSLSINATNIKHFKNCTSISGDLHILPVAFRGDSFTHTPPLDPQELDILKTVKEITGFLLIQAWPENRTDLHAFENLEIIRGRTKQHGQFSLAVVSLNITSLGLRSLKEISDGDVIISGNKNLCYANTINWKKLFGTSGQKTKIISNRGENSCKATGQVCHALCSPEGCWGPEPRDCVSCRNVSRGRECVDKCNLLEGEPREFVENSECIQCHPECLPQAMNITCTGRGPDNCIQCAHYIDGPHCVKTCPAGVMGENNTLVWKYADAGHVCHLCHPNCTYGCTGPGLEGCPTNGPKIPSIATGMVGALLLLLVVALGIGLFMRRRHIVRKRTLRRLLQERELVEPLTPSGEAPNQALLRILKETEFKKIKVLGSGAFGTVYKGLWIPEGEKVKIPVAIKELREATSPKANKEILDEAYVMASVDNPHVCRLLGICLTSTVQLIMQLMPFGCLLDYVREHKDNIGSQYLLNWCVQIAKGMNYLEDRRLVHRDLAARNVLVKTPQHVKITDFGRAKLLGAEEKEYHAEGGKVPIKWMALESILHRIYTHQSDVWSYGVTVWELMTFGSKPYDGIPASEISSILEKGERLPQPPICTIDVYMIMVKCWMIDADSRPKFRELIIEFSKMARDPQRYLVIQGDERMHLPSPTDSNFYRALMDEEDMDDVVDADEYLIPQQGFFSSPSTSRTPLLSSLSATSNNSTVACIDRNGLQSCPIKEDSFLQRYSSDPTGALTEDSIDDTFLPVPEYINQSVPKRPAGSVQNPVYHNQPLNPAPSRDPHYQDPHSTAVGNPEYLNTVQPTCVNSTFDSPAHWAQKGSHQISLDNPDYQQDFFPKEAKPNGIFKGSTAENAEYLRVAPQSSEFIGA
ASSAY_PROTOCOL: Ba/F3 cell proliferation (MTS) assay, T790M/L858R
RUN_PARAMETERS: antiproliferative activity
The entries below come with measured EC50 values attached.

These recorded examples may help you get a feel for the data.
INSERT INTO results (compound, reported) VALUES
  ('O=C1CCC(N2C(=O)c3cccc(NCCOCCOCCOCCN4CCN(c5ccc(-c6ccc7c(c6)C(=O)N(C(C(=O)Nc6nccs6)c6cc(F)ccc6O)C7)cc5)CC4)c3C2=O)C(=O)N1 (stereo not drawn)', '1000 to 5000 nM'),
  ('O=C1CCC(N2C(=O)c3cccc(NCCOCCOCCOCCOCCN4CCN(c5ccc(-c6ccc7c(c6)C(=O)N(C(C(=O)Nc6nccs6)c6ccccc6)C7)cc5)CC4)c3C2=O)C(=O)N1 (stereo not drawn)', '< 500 nM');

Let us examine a further case.
Record O=C1CCC(N2C(=O)c3cccc(NCCOCCOCCC(=O)N4CCN(c5ccc(-c6ccc7c(c6)C(=O)N(C(C(=O)Nc6nccs6)c6cc(F)ccc6O)C7)cc5)CC4)c3C2=O)C(=O)N1 (stereo not drawn) , field EC50: 500 to 1000 nM

---

TARGET: T790M/L858R/C797S transformed Ba/F3 cells (Homo sapiens, UniProt P00533, T790M/C797S/L858R, cells depend on it)
Construct: The constructs were shuttled into the retroviral vector JP 1540 using the BD Creator™ System (BD Biosciences)
Sequence (P00533 whole entry T790M/C797S/L858R): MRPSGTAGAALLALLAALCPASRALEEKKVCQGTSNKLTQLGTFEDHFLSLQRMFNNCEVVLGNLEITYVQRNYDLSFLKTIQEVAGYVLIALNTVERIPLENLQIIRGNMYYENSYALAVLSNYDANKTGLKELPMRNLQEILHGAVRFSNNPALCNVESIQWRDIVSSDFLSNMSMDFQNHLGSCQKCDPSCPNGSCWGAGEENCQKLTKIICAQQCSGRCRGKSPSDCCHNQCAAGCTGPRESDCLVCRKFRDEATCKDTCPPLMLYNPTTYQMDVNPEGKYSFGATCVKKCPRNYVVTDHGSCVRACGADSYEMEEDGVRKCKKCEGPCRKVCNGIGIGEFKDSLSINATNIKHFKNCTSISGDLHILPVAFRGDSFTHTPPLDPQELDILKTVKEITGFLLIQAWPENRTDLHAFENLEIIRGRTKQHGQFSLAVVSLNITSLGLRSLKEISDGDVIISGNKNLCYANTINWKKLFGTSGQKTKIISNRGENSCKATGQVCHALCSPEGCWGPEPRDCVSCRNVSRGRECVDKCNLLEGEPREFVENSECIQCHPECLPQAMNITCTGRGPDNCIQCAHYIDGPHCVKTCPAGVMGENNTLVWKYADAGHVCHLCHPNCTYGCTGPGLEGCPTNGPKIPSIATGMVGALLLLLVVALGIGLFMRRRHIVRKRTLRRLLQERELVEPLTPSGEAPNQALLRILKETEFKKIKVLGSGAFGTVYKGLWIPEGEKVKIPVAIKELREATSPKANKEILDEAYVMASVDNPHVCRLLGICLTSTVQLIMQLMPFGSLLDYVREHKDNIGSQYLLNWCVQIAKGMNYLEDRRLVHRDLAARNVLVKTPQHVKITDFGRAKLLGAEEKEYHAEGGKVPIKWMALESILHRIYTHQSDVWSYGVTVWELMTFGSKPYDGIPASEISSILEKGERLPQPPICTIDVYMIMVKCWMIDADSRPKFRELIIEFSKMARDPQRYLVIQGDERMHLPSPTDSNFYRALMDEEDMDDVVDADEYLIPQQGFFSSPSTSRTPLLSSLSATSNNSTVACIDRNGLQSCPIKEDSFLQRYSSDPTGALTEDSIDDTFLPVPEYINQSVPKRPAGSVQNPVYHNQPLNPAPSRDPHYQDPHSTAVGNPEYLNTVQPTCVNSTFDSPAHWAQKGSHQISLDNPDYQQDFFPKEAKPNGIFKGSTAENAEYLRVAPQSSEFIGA
ASSAY_PROTOCOL: Ba/F3 cell proliferation (MTS) assay, T790M/L858R/C797S
RUN_PARAMETERS: antiproliferative activity
pEC50: −log10 of the molar value.
Below: a set of entries, each annotated with reported pEC50.

Known results for compounds:
INSERT INTO measurements (compound, quantity, reported) VALUES
  ('O=C1CCC(N2C(=O)c3cccc(NCCOCCOCCOCCN4CCN(c5ccc(-c6ccc7c(c6)C(=O)N(C(C(=O)Nc6nccs6)c6ccccc6)C7)cn5)CC4)c3C2=O)C(=O)N1 (stereo not drawn) [Compound I-22]', 'pEC50', '6.00 to 6.30'),
  ('O=C1CCC(N2C(=O)c3cccc(NCCOCCC(=O)N4CCN(c5ccc(-c6ccc7c(c6)C(=O)N(C(C(=O)Nc6nccs6)c6cc(F)ccc6O)C7)cc5)CC4)c3C2=O)C(=O)N1 (stereo not drawn) [Compound I-29]', 'pEC50', '< 5.30'),
  ('O=C1CCC(N2C(=O)c3cccc(NCCOCCOCCOCCN4CCN(c5ccc(-c6ccc7c(c6)C(=O)N(C(C(=O)Nc6nccs6)c6cc(F)ccc6O)C7)cc5)CC4)c3C2=O)C(=O)N1 (stereo not drawn) [Compound I-10]', 'pEC50', '< 5.30'),
  ('O=C1CCC(N2C(=O)c3cccc(NC4CN(CCOCCOCCN5CCN(c6ccc(-c7ccc8c(c7)C(=O)N(C(C(=O)Nc7nccs7)c7ccccc7)C8)cc6)CC5)C4)c3C2=O)C(=O)N1 (stereo not drawn) [Compound I-15]', 'pEC50', '< 5.30');

Value of pEC50 reported for the compound O=C1CCC(N2C(=O)c3cccc(NCCOCCOCCC(=O)N4CCN(c5ccc(-c6ccc7c(c6)C(=O)N(C(C(=O)Nc6nccs6)c6cc(F)ccc6O)C7)cc5)CC4)c3C2=O)C(=O)N1 (stereo not drawn) [Compound I-28] is < 5.30

Entry O=C1CCC(N2C(=O)c3cccc(NCCOCCOCCOCCN4CCN(c5ccc(-c6ccc7c(c6)C(=O)N(C(C(=O)Nc6nccs6)c6ccccc6)C7)cc5)CC4)c3C2=O)C(=O)N1 (stereo not drawn) [Compound I-18] ; pEC50 = > 6.30

---

TARGET: T790M/L858R transformed Ba/F3 cells (Homo sapiens, UniProt P00533, T790M/L858R, cells depend on it)
Construct: The constructs were shuttled into the retroviral vector JP 1540 using the BD Creator™ System (BD Biosciences)
ASSAY_PROTOCOL: Ba/F3 cell proliferation (MTS) assay, T790M/L858R
Format: cell-based, murine
RUN_PARAMETERS: compound at 1 μM, inhibition of growth as percent of control
QUANTITY: % control

Worked examples, 5 compounds total:
INSERT INTO measurements (compound, quantity, reported) VALUES
  ('O=C1CCC(N2C(=O)c3cccc(NCCOCCOCCOCCN4CCN(c5ccc(-c6ccc7c(c6)C(=O)N(C(C(=O)Nc6nccs6)c6ccccc6O)C7)cn5)CC4)c3C2=O)C(=O)N1 (stereo not shown)', '% control', 'D (D is 75<% control)'),
  ('O=C1CCC(N2C(=O)c3cccc(NCCOCCOCCOCCN4CCN(c5ccc(-c6ccc7c(c6)C(=O)N(C(C(=O)Nc6nccs6)c6ccccc6)C7)cc5)CC4)c3C2=O)C(=O)N1 (stereo not shown)', '% control', 'A (A is 0<% control <25)'),
  ('CC1(N2C(=O)c3cccc(NCCOCCOCCOCCC(=O)N4CCN(c5ccc(-c6ccc7c(c6)C(=O)N(C(C(=O)Nc6nccs6)c6ccccc6)C7)cc5)CC4)c3C2=O)CCC(=O)NC1=O (stereo not shown)', '% control', 'D (D is 75<% control)'),
  ('Cc1ncsc1-c1ccc([C@H](C)NC(=O)[C@@H]2C[C@@H](O)CN2C(=O)[C@@H](NC(=O)CCOCCOCCOCCN2CCN(c3ccc(-c4ccc5c(c4)C(=O)N(C(C(=O)Nc4nccs4)c4ccccc4)C5)cn3)CC2)C(C)(C)C)cc1 (stereo partly shown)', '% control', 'D (D is 75<% control)'),
  ('O=C1CCC(N2C(=O)c3cccc(NCCOCCOCCOCCOCCN4CCN(c5ccc(-c6ccc7c(c6)C(=O)N(C(C(=O)Nc6nccs6)c6ccccc6)C7)cc5)CC4)c3C2=O)C(=O)N1 (stereo not shown)', '% control', 'A (A is 0<% control <25)');

In the following, a different compound is considered.
Consider O=C1CCC(N2C(=O)c3cccc(NCCOCCC(=O)N4CCN(c5ccc(-c6ccc7c(c6)C(=O)N(C(C(=O)Nc6nccs6)c6cc(F)ccc6O)C7)cc5)CC4)c3C2=O)C(=O)N1 (stereo not shown) . Its measured % control is A (A is 0<% control <25)

---

TARGET: T790M/L858R transformed Ba/F3 cells (Homo sapiens, UniProt P00533, T790M/L858R, cells depend on it)
Construct: The constructs were shuttled into the retroviral vector JP 1540 using the BD Creator™ System (BD Biosciences)
ASSAY_PROTOCOL: Ba/F3 cell proliferation (MTS) assay, T790M/L858R
RUN_PARAMETERS: antiproliferative activity
EC50 by entry:

INSERT INTO assay_data (compound, reported) VALUES
  ('Cc1ncsc1-c1ccc([C@H](C)NC(=O)[C@@H]2C[C@@H](O)CN2C(=O)[C@@H](NC(=O)CCOCCOCCOCCN2CCN(c3ccc(-c4ccc5c(c4)C(=O)N(C(C(=O)Nc4nccs4)c4ccccc4)C5)cn3)CC2)C(C)(C)C)cc1 (some centres unmarked) [Compound I-23]', '> 5000 nM'),
  ('O=C1CCC(N2C(=O)c3cccc(NCCOCCOCCN4CCN(c5ccc(-c6ccc7c(c6)C(=O)N(C(C(=O)Nc6nccs6)c6cc(F)ccc6O)C7)cc5)CC4)c3C2=O)C(=O)N1 (centres unmarked) [Compound I-33]', '< 500 nM');

Looking up O=C1CCC(N2C(=O)c3cccc(NCCCCCCN4CCN(c5ccc(-c6ccc7c(c6)C(=O)N(C(C(=O)Nc6nccs6)c6cc(F)ccc6O)C7)cc5)CC4)c3C2=O)C(=O)N1 (centres unmarked) [Compound I-11] , I see its EC50 listed as 1000 to 5000 nM

Form: compound = O=C1CCC(N2C(=O)c3cccc(NCCOCCOCCOCCC(=O)N4CCN(c5ccc(-c6ccc7c(c6)C(=O)N(C(C(=O)Nc6nccs6)c6ccccc6)C7)cc5)CC4)c3C2=O)C(=O)N1 (centres unmarked) [Compound I-1] ; EC50 = < 500 nM

Notebook: O=C1CCC(N2C(=O)c3cccc(NC4CN(CCOCCOCCN5CCN(c6ccc(-c7ccc8c(c7)C(=O)N(C(C(=O)Nc7nccs7)c7ccccc7)C8)cc6)CC5)C4)c3C2=O)C(=O)N1 (centres unmarked) [Compound I-15] , EC50 read as 1000 to 5000 nM

---

TARGET: T790M/L858R transformed Ba/F3 cells (Homo sapiens, UniProt P00533, T790M/L858R, cells depend on it)
Construct: The constructs were shuttled into the retroviral vector JP 1540 using the BD Creator™ System (BD Biosciences)
ASSAY_PROTOCOL: Ba/F3 cell proliferation (MTS) assay, T790M/L858R
RUN_PARAMETERS: antiproliferative activity
QUANTITY: EC50

INSERT INTO assay_data (compound, reported) VALUES
  ('O=C1CCC(N2C(=O)c3cccc(NCCOCCOCCOCCN4CCN(c5ccc(-c6ccc7c(c6)C(=O)N(C(C(=O)Nc6nccs6)c6ccccc6)C7)cn5)CC4)c3C2=O)C(=O)N1 (stereo not drawn)', '< 500 nM'),
  ('O=C1CCC(N2C(=O)c3cccc(NCCOCCOCCOCCN4CCN(c5ccc(-c6ccc7c(c6)C(=O)N(C(C(=O)Nc6nccs6)c6ccccc6)C7)cc5)CC4)c3C2=O)C(=O)N1 (stereo not drawn)', '< 500 nM');

Attention now turns to another entry.
Record Cc1ncsc1-c1ccc([C@H](C)NC(=O)[C@@H]2C[C@@H](O)CN2C(=O)[C@@H](NC(=O)CCOCCOCCN2CCN(c3ccc(-c4ccc5c(c4)C(=O)N(C(C(=O)Nc4nccs4)c4ccccc4)C5)cn3)CC2)C(C)(C)C)cc1 (stereo partly drawn) , field EC50: > 5000 nM
